The reported numbers originate from patent US20240025887A1.

- tested target: NUAK2 (h) (Homo sapiens, UniProt Q9H093)
- Construct: This assay was done radiometrically using full-length, recombinant enzyme
- Sequence (Q9H093 1-628): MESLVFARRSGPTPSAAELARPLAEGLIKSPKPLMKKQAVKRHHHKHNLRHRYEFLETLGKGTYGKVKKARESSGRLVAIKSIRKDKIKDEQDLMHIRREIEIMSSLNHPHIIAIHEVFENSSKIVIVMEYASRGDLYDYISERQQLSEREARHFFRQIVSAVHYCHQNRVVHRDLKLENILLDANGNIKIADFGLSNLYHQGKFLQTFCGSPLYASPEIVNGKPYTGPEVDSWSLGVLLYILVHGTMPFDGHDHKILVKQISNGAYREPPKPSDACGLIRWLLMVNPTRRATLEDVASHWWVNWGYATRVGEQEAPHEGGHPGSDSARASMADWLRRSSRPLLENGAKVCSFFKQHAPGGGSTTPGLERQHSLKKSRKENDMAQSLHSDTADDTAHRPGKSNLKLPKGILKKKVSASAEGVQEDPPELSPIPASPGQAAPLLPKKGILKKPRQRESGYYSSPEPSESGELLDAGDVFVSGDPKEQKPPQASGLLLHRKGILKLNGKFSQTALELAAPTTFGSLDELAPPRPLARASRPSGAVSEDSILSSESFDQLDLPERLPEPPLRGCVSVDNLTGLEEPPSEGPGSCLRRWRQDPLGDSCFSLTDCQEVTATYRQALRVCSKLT
- experimental details: NUAK2 enzymatic assay (radiometric, Eurofins)
- assay context: radiometric, full-length recombinant enzyme
Listing of entries alongside the reported IC50.

>  <compound>
Cc1c(Nc2ncc(Cl)c(Nc3ccsc3C(N)=O)n2)ccc(N2CCN(C)CC2)c1F [Compound C-5, reference compound]

>  <IC50>
0.1 to 10 nM

$$$$
>  <compound>
CN1CCCN(C2CCN(c3ccc(Nc4ncc(Cl)c(Nc5ccsc5C(N)=O)n4)c(OC(F)F)c3)CC2)CC1

>  <IC50>
11 to 100 nM

$$$$
>  <compound>
CN1C[C@@H]2CN(c3ccc(Nc4ncc(Cl)c(Nc5ccsc5C(N)=O)n4)c(OC(F)F)c3)C[C@@H]2C1

>  <IC50>
0.1 to 10 nM

$$$$
>  <compound>
NC(=O)c1sccc1Nc1nc(Nc2ccc(N3CCOCC3)cc2OC(F)F)ncc1C(F)(F)F

>  <IC50>
11 to 100 nM

$$$$
>  <compound>
CN1CCN(c2ccc(Nc3ncc(Cl)c(Nc4ccsc4C(N)=O)n3)c(OC(F)F)c2F)CC1

>  <IC50>
11 to 100 nM

$$$$
>  <compound>
CC(C)(C)N1CCN(C2CCN(c3ccc(Nc4ncc(Cl)c(Nc5ccsc5C(N)=O)n4)c(OC(F)F)c3)CC2)CC1

>  <IC50>
11 to 100 nM

$$$$
>  <compound>
C[C@H]1CN(C)CCN1c1ccc(Nc2ncc(Cl)c(Nc3ccsc3C(N)=O)n2)c(OC(F)F)c1

>  <IC50>
11 to 100 nM

$$$$
>  <compound>
CN1C2CCC1CN(c1ccc(Nc3ncc(Cl)c(Nc4ccsc4C(N)=O)n3)c(OC(F)F)c1)C2

>  <IC50>
0.1 to 10 nM

$$$$
>  <compound>
NC(=O)c1ccsc1Nc1nc(Nc2ccc(N3CCNCC3)cc2OC(F)F)ncc1Cl

>  <IC50>
11 to 100 nM

$$$$
>  <compound>
C[C@@H]1CN(c2ccc(Nc3ncc(Cl)c(Nc4ccsc4C(N)=O)n3)c(OC(F)F)c2)C[C@H](C)N1C

>  <IC50>
0.1 to 10 nM

$$$$
>  <compound>
CNC(=O)c1sccc1Nc1nc(Nc2ccc(N3CCN(C)CC3)cc2OC(F)F)ncc1Cl

>  <IC50>
11 to 100 nM

$$$$
>  <compound>
CN1C[C@H]2C[C@@H]1CN2c1ccc(Nc2ncc(Cl)c(Nc3ccsc3C(N)=O)n2)c(OC(F)F)c1

>  <IC50>
0.1 to 10 nM

$$$$
>  <compound>
NC(=O)c1sccc1Nc1nc(Nc2ccc(N3CCCC3)cc2OC(F)F)ncc1Cl

>  <IC50>
101 to 1000 nM

$$$$
>  <compound>
C[C@@H]1CN(C2CCN(c3ccc(Nc4ncc(C(F)(F)F)c(Nc5ccsc5C(N)=O)n4)c(OC(F)F)c3)CC2)C[C@H](C)N1C

>  <IC50>
11 to 100 nM

$$$$
>  <compound>
CN1CCN(c2ccc(Nc3ncc(Cl)c(N[C@@H]4CCCC[C@@H]4C(N)=O)n3)c(C(F)(F)F)c2)CC1

>  <IC50>
11 to 100 nM

$$$$
